Here the recorded EC50 is given for each entry.
experimentalTarget: muscle-type nicotinic acetylcholine receptors (Homo sapiens, UniProt P02708+P07510+Q07001)
Construct: endogenous in cells; host or cells: TE671/RD (own knowledge of the cited US 5,597,919)
Sequence (P02708 21-457): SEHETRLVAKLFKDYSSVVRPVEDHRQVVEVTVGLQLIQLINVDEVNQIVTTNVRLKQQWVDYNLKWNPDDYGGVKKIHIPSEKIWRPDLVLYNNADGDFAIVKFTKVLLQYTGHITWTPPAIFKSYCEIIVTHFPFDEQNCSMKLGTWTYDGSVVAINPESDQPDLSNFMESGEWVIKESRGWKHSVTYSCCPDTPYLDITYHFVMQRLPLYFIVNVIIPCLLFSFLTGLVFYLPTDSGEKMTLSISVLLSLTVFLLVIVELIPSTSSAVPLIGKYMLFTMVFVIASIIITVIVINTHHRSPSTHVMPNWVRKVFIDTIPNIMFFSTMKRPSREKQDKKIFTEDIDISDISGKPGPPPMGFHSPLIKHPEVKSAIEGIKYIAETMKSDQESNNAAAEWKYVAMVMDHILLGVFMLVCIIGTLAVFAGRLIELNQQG
Sequence (P11230 24-501 partner): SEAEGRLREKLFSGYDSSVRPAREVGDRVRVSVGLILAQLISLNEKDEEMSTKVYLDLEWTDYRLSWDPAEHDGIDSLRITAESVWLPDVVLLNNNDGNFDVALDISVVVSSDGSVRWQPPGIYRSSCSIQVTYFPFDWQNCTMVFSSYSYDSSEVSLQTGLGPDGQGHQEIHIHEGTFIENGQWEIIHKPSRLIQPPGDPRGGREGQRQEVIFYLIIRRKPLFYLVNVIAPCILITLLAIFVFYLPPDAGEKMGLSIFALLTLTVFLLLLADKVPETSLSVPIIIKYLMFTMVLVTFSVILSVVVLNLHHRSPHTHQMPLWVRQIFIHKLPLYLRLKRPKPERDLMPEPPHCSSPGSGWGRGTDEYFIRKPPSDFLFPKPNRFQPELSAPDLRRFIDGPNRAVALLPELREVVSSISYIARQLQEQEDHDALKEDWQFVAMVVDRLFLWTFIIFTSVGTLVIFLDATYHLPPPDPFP
Sequence (Q07001 22-517): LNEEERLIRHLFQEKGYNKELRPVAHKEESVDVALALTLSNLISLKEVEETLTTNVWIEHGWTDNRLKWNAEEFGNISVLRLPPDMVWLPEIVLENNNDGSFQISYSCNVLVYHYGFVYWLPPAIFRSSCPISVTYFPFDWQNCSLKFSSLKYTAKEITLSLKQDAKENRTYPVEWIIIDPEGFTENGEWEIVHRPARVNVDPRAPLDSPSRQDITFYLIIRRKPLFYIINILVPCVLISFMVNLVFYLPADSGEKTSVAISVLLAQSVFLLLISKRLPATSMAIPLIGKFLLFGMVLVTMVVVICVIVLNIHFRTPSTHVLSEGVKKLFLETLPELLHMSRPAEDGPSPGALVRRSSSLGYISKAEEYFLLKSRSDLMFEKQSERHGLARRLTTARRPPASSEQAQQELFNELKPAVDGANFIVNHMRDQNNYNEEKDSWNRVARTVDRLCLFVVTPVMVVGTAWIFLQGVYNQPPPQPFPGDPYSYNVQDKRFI
Sequence (P07510 23-517): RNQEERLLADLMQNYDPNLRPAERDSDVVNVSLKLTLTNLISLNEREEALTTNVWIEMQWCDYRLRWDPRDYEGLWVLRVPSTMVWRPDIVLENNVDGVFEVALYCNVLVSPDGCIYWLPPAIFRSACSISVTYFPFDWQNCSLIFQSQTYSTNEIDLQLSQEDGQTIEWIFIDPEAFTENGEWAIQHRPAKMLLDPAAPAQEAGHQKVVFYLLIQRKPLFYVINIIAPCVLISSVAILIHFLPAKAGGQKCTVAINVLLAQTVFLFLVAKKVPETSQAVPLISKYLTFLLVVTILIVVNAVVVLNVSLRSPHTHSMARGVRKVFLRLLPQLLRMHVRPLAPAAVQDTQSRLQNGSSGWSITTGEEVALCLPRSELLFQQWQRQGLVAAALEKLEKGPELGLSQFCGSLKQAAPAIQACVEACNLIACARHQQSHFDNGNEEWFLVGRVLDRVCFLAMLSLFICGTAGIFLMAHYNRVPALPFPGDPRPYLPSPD
assayProtocol: cell-based
conditionContext: read-out: Muscle Effect EC50
Where a name gives a salt, the structure may show the parent alone.
Number in µM, nothing else.

// known answers, use as guide
1) CC(C)Oc1cncc(C2CC3CCN2CC3)c1 (stereo not drawn) [Sample No. 8, dihydrochloride]
3
2) c1cncc([C@@H]2C[C@@H]3CCN2C3)c1 (relative stereo)
0.1

Given the entry Nc1cncc(C2CC3CCN2CC3)c1 (stereo not drawn) [Sample No. 6, trihydrochloride] , what EC50 was observed with muscle-type nicotinic acetylcholine receptors (Homo sapiens, UniProt P02708+P07510+Q07001)?
3
